Consider the following compounds and their measured relative viability readings.
Test system: SW872
Assay Name: relative viability vs DMSO control (72 h) (fraction); higher = more viable cells
Test Context: 0.1235 µM
Enter a number only.

In the examples that follow, each entry is paired with its recorded relative viability.
[[record]]
compound = "O=C(/C=C\\n1cnc(-c2cc(C(F)(F)F)cc(C(F)(F)F)c2)n1)NNc1cnccn1 [Selinexor]"
target_desc = "SW872"
reported = 0.823

[[record]]
compound = "C#Cc1cccc(Nc2ncnc3cc4c(cc23)OCCOCCOCCO4)c1"
target_desc = "SW872"
reported = 1.08

[[record]]
compound = "CNC(=O)c1c(C)oc2cc(Oc3ncnc4cc(OC)c(OC)cc34)ccc12"
target_desc = "SW872"
reported = 1

[[record]]
compound = "C=CC(=O)N1CCC(CNc2ncnc(N)c2-c2ccc(Oc3ccccc3)cc2)CC1"
target_desc = "SW872"
reported = 1.07


// next item, relative viability requested
Param item = CCS(=O)(=O)N1CC(CC#N)(n2cc(-c3ncnc4[nH]ccc34)cn2)C1 ; retrieve measured relative viability.
1.03

---

Consider the following molecules and their measured relative viability readings.
Tested on: RD
Assay Name: relative viability vs DMSO control (72 h) (fraction); higher = more viable cells
Test Context: 0.3704 µM
Enter a number only.

In the examples that follow, each entry is paired with its recorded relative viability.
[[record]]
molecule = "CN(C)C/C=C/C(=O)Nc1cc2c(Nc3ccc(F)c(Cl)c3)ncnc2cc1O[C@H]1CCOC1 [Afatinib]"
reported = 1.03

[[record]]
molecule = "C=CC(=O)N1CCC(CNc2ncnc(N)c2-c2ccc(Oc3ccccc3)cc2)CC1 [Evobrutinib]"
reported = 1.09

[[record]]
molecule = "C#Cc1cccc(Nc2ncnc3cc4c(cc23)OCCOCCOCCO4)c1 [Icotinib]"
reported = 1.15


Param readout = relative viability; param system = RD; param query = Cn1cnc2c(F)c(Nc3ccc(Br)cc3Cl)c(C(=O)NOCCO)cc21 [Selumetinib] ; response: value
0.703

Param readout = relative viability; param system = RD; param query = CNC(=O)c1c(C)oc2cc(Oc3ncnc4cc(OC)c(OC)cc34)ccc12 [Fruquintinib] ; response: value
1.09

Param readout = relative viability; param system = RD; param query = CCOc1cc2ncc(C#N)c(Nc3ccc(OCc4ccccn4)c(Cl)c3)c2cc1NC(=O)/C=C/CN(C)C [Neratinib] ; response: value
0.714

Param readout = relative viability; param system = RD; param query = Cc1cc2c(F)c(Oc3ncnn4cc(OC[C@@H](C)OC(=O)[C@H](C)N)c(C)c34)ccc2[nH]1 [Brivanib_alaninate] ; response: value
1.1

Param readout = relative viability; param system = RD; param query = Cc1[nH]c(/C=C2\C(=O)Nc3ccccc32)c(C)c1CCC(=O)O [Orantinib] ; response: value
1.11

Param readout = relative viability; param system = RD; param query = CNC(=O)c1cccc2cc(Oc3ccnc4cc(OCC5(N)CC5)c(OC)cc34)ccc12 [Lucitanib] ; response: value
1.14

---

Tested on: SW872
Assay Name: relative viability vs DMSO control (72 h) (fraction); higher = more viable cells
Test Context: 0.04115 µM
Reported Endpoint: relative viability
Enter a number only.

In the examples that follow, each entry is paired with its recorded relative viability.
[[record]]
compound = "COc1cc2ncnc(Nc3ccc(F)c(Cl)c3)c2cc1OCCCN1CCOCC1"
reported_endpoint = "relative viability"
reported = 1.02

[[record]]
compound = "O=C(c1ccc(F)c(F)c1Nc1ccc(I)cc1F)N1CC(O)([C@@H]2CCCCN2)C1"
reported_endpoint = "relative viability"
reported = 0.622


Param item = CN(C)C/C=C/C(=O)Nc1cc2c(Nc3ccc(F)c(Cl)c3)ncnc2cc1O[C@H]1CCOC1 ; retrieve measured relative viability.
1.06

Param item = Cc1[nH]c(/C=C2\C(=O)Nc3ccccc32)c(C)c1CCC(=O)O [Orantinib] ; retrieve measured relative viability.
1.08

Param item = C=CC(=O)N1CCC(CNc2ncnc(N)c2-c2ccc(Oc3ccccc3)cc2)CC1 ; retrieve measured relative viability.
1.03

Param item = O=S(=O)(c1cccc2c(O)nccc12)N1CCCNCC1 [Hydroxyfasudil] ; retrieve measured relative viability.
1.11

Param item = COc1cc(Nc2ncc3c(n2)-c2ccc(Cl)cc2C(c2c(F)cccc2OC)=NC3)ccc1C(=O)O ; retrieve measured relative viability.
1.01

Param item = CS(=O)(=O)CCNCc1ccc(-c2ccc3ncnc(Nc4ccc(OCc5cccc(F)c5)c(Cl)c4)c3c2)o1 ; retrieve measured relative viability.
1.05
